Molecular target: α1b-AR (Homo sapiens, UniProt P35368)
Construct: expressed in transfected cells; host or cells: COS cells (transient, DEAE-dextran), membranes
Sequence (P35368 whole entry): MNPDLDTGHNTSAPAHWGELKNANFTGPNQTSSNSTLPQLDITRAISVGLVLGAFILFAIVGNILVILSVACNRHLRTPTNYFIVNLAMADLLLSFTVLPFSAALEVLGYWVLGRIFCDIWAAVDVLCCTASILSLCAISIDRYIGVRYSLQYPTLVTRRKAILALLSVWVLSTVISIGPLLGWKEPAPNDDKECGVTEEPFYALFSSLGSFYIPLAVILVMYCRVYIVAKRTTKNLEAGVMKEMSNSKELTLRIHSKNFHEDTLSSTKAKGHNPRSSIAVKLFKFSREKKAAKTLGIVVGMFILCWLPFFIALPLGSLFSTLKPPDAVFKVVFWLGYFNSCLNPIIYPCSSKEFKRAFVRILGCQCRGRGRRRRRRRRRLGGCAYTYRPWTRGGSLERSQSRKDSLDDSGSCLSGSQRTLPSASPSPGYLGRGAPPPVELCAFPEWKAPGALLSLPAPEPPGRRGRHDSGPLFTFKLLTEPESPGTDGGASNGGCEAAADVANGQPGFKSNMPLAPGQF
Experiment: Radioligand ([125I]-HEAT) receptor binding assay, COS cell membranes expressing α1b-AR
Conditions: Table B, [125I]-HEAT 50 pM
METRIC_NAME: pIC50
Reminder that pIC50 means the negative base-10 logarithm of the concentration expressed in mol/L.

The compound identified as "CC(C)Oc1ccccc1N1CCN(CCNC(=O)CN2C(=O)c3ccccc3C2=O)CC1" registered its pIC50 at 5.79

====

Molecular target: α1b-AR (Homo sapiens, UniProt P35368)
Construct: expressed in transfected cells; host or cells: COS cells (transient, DEAE-dextran), membranes
Experiment: Radioligand ([125I]-HEAT) receptor binding assay, COS cell membranes expressing α1b-AR
Conditions: Table A, [125I]-HEAT 50 pM
METRIC_NAME: pIC50
Reminder that pIC50 means the negative base-10 logarithm of the concentration expressed in mol/L.

Observed pIC50 on α1b-AR (Homo sapiens, UniProt P35368), entry C=CCN(CCN1CCN(c2ccccc2OC(C)C)CC1)C(=O)CN1CCCCC1=O [compound 7] , equals 3.76

Observed pIC50 on α1b-AR (Homo sapiens, UniProt P35368), entry CC(C)Oc1ccccc1N1CCN(CCN(Cc2ccccc2)C(=O)CN2CCCCC2=O)CC1 [compound 9] , equals 5.37

Observed pIC50 on α1b-AR (Homo sapiens, UniProt P35368), entry CCOC(=O)C1CCC(=O)N1CC(=O)NCCN1CCN(c2ccccc2OC(C)C)CC1 (stereo not shown) [compound 10] , equals 4.58

Observed pIC50 on α1b-AR (Homo sapiens, UniProt P35368), entry CC(C)Oc1ccccc1N1CCN(CCNC(=O)CN2CCCCC2=O)CC1 [Cpd. 5] , equals 4.34

Observed pIC50 on α1b-AR (Homo sapiens, UniProt P35368), entry CC(C)Oc1ccccc1N1CCN(CCNC(=O)CN2CCCCCC2=O)CC1 [compound 11] , equals 5.45

Observed pIC50 on α1b-AR (Homo sapiens, UniProt P35368), entry COc1ccccc1N1CCN(CCCNC(=O)CN2CCCCC2=O)CC1 [compound 12] , equals 3.96

Next compound, pIC50 to be filled in.
Observed pIC50 on α1b-AR (Homo sapiens, UniProt P35368), entry CC(C)Oc1ccccc1N1CCN(CCN(C)C(=O)CN2CCCCC2=O)CC1 [Cpd. 6] , equals 3.12
